- method description: Toxicokinetics of BAK in rat plasma after a single oral dose
- Type: in vivo, Sprague–Dawley rats
- setup conditions: Sprague-Dawley, rat, plasma, po, 200 mg/kg, 24.00 h after single oral dose; read-out: BAK concentration in rat plasma, mean
measured metric: concentration at 24 h (ng/mL)
State the answer as a number, implicitly in ng/mL.

Q: concentration at 24 h lookup needed for `C=C[C@@](C)(/C=C/c1ccc(O)cc1)CCC=C(C)C` , thanks.
Result: 68.1

* * *

- experimental target: CYP2C19 (Homo sapiens, UniProt P33261)
- Construct: was investigated in HLMs; tissue iPhase Pharmaceutical Services (Beijing, China) Lot # 7MMC011; host or cells: pooled human liver microsomes
- Sequence (P33261 whole entry): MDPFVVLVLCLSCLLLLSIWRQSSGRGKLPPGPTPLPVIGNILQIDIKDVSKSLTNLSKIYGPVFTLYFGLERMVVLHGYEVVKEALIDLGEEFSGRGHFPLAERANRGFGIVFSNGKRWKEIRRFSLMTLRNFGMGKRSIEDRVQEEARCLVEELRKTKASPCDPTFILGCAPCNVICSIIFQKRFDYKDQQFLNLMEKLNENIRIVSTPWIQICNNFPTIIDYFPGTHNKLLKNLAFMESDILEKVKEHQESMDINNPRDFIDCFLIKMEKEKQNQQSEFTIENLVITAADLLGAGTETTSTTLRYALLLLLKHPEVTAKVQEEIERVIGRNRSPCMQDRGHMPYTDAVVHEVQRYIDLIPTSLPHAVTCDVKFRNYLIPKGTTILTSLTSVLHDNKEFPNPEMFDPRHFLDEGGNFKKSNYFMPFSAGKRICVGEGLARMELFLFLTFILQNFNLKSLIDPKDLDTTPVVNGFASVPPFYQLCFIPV
- method description: Inhibition of CYP activities by GA in HLMs (mephenytoin)
- Assay type: biochemical
- setup conditions: human, human liver microsomes, probe mephenytoin (25 µM); read-out: Relative activity (%)
measured metric: activity at 30 min, […] (%)
State the answer as a number, implicitly in %.

Q: activity at 30 min, […] lookup needed for `CC1(C)[C@@H](O)CC[C@]2(C)[C@H]3C(=O)C=C4[C@@H]5C[C@@](C)(C(=O)O)CC[C@]5(C)CC[C@@]4(C)[C@]3(C)CC[C@@H]12` , thanks.
Result: 36.8

* * *

- experimental target: CYP2D6 (Homo sapiens, UniProt P10635)
- Construct: was investigated in HLMs; tissue iPhase Pharmaceutical Services (Beijing, China) Lot # 7MMC011; host or cells: pooled human liver microsomes
- Sequence (P10635 whole entry): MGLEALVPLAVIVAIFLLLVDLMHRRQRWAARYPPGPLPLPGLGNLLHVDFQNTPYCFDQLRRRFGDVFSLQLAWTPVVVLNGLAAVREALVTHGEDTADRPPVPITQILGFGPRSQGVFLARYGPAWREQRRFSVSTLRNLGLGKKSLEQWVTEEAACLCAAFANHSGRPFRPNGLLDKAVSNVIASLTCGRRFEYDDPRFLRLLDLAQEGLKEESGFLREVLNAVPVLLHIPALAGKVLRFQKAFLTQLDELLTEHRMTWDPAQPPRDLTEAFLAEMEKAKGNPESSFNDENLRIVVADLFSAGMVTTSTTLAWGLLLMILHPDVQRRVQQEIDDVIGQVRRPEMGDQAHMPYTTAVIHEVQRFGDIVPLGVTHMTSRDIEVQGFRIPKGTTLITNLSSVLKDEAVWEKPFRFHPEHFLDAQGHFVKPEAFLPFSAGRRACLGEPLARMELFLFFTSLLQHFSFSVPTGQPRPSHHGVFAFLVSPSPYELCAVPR
- method description: Inhibition of CYP activities by GA in HLMs (dextromethorphan)
- Format: biochemical
- setup conditions: human, human liver microsomes, probe dextromethorphan (10 µM); CYP2D6-30min; GA 312.50; vs control; read-out: Relative activity (%)
measured metric: activity at 30 min, 312.5 µM

Q: Notebook: pull reported activity at 30 min, 312.5 µM for CYP2D6 (Homo sapiens, UniProt P10635), entry `CC1(C)[C@@H](O)CC[C@]2(C)[C@H]3C(=O)C=C4[C@@H]5C[C@@](C)(C(=O)O)CC[C@]5(C)CC[C@@]4(C)[C@]3(C)CC[C@@H]12`
Result: 42%

* * *

- experimental target: CYP3A4 (Homo sapiens)
- Construct: was investigated in HLMs; tissue iPhase Pharmaceutical Services (Beijing, China) Lot # 7MMC011; host or cells: pooled human liver microsomes
- method description: Inhibition of CYP activities by GA in HLMs (midazolam)
- Type: biochemical
- setup conditions: human, human liver microsomes, probe midazolam (10 µM); CYP3A4-30min; GA 156.25; vs control; read-out: Relative activity (%)
measured metric: activity at 30 min, 156.25 µM (%)
State the answer as a number, implicitly in %.

Q: activity at 30 min, 156.25 µM lookup needed for `CC1(C)[C@@H](O)CC[C@]2(C)[C@H]3C(=O)C=C4[C@@H]5C[C@@](C)(C(=O)O)CC[C@]5(C)CC[C@@]4(C)[C@]3(C)CC[C@@H]12` , thanks.
Result: 13.1

* * *

- experimental target: CYP3A4 (Homo sapiens, UniProt P08684)
- Construct: was investigated in HLMs; tissue iPhase Pharmaceutical Services (Beijing, China) Lot # 7MMC011; host or cells: pooled human liver microsomes
- Sequence (P08684 whole entry): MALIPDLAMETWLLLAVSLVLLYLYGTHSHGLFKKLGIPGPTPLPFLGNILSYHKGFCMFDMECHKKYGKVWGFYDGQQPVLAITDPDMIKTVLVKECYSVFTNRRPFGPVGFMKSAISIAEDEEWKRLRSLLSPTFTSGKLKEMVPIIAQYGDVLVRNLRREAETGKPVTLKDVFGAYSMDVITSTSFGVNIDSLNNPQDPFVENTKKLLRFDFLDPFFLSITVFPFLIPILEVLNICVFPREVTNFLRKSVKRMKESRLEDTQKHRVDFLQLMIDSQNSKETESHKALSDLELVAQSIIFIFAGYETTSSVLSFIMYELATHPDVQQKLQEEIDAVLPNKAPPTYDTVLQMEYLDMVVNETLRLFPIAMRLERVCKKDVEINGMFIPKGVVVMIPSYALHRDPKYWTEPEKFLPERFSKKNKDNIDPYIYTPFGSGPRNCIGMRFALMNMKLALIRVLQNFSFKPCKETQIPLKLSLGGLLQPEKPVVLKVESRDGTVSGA
- method description: Inhibition of CYP activities by GA in HLMs (midazolam)
- Format: biochemical
- setup conditions: human, human liver microsomes, probe midazolam (10 µM); CYP3A4-30min; GA 6.25; vs control; read-out: Relative activity (%)
measured metric: activity at 30 min, 6.25 µM (%)
State the answer as a number, implicitly in %.

Q: activity at 30 min, 6.25 µM lookup needed for `CC1(C)[C@@H](O)CC[C@]2(C)[C@H]3C(=O)C=C4[C@@H]5C[C@@](C)(C(=O)O)CC[C@]5(C)CC[C@@]4(C)[C@]3(C)CC[C@@H]12` , thanks.
Result: 39.1
